Test system: EB–DNA adduct (CT DNA)
Assay: Competitive study with EB (EB–DNA fluorescence quenching)
Format: binding, calf
Conditions: [EB] = 20 μM, [DNA] = 26 μM, λexc 540 nm, λem 592 nm
Recorded ΔI/Io, percentage of EB–DNA fluorescence quenching by entry
readout_name: ΔI/Io, percentage of EB–DNA fluorescence quenching (%)

{"compound": "CN1CCN(c2c(F)cc3c(=O)c(C(=O)[O-])cn(CCF)c3c2F)CC1.[Cl-].[Cu+2].c1ccc(Nc2ccccn2)nc1 [complex 7, [Cu(flrx)(bipyam)Cl]]", "value_measured": 62.7}
{"compound": "CN1CCN(c2c(F)cc3c(=O)c(C(=O)[O-])cn(CCF)c3c2F)CC1.CN1CCN(c2c(F)cc3c(=O)c(C(=O)[O-])cn(CCF)c3c2F)CC1.[Co+2].c1ccc(-c2ccccn2)nc1 [complex 15, [Co(flrx)2(bipy)]]", "value_measured": 80.4}
{"compound": "CN1CCN(c2c(F)cc3c(=O)c(C(=O)[O-])cn(CCF)c3c2F)CC1.CN1CCN(c2c(F)cc3c(=O)c(C(=O)[O-])cn(CCF)c3c2F)CC1.O.O.[Mn+2] [complex 2, [Mn(flrx)2(H2O)2]]", "value_measured": 74.4}
{"compound": "CN1CCN(c2c(F)cc3c(=O)c(C(=O)[O-])cn(CCF)c3c2F)CC1.[Cl-].[Cu+2].c1cnc2c(c1)ccc1cccnc12 [complex 8, [Cu(flrx)(phen)Cl]]", "value_measured": 66.4}
{"compound": "CN1CCN(c2c(F)cc3c(=O)c(C(=O)[O-])cn(CCF)c3c2F)CC1.CN1CCN(c2c(F)cc3c(=O)c(C(=O)[O-])cn(CCF)c3c2F)CC1.[Zn+2].c1ccc(-c2ccccn2)nc1 [complex 12, [Zn(flrx)2(bipy)]]", "value_measured": 88.6}
{"compound": "CN1CCN(c2c(F)cc3c(=O)c(C(=O)[O-])cn(CCF)c3c2F)CC1.CN1CCN(c2c(F)cc3c(=O)c(C(=O)[O-])cn(CCF)c3c2F)CC1.[Mn+2].c1ccc(-c2ccccn2)nc1 [complex 9, [Mn(flrx)2(bipy)]]", "value_measured": 73.8}
{"compound": "CN1CCN(c2c(F)cc3c(=O)c(C(=O)[O-])cn(CCF)c3c2F)CC1.CN1CCN(c2c(F)cc3c(=O)c(C(=O)[O-])cn(CCF)c3c2F)CC1.[Co+2].c1ccc(Nc2ccccn2)nc1 [complex 16, [Co(flrx)2(bipyam)]]", "value_measured": 70.7}
{"compound": "CN1CCN(c2c(F)cc3c(=O)c(C(=O)[O-])cn(CCF)c3c2F)CC1.CN1CCN(c2c(F)cc3c(=O)c(C(=O)[O-])cn(CCF)c3c2F)CC1.CO.CO.[Co+2] [complex 4, [Co(flrx)2(MeOH)2]]", "value_measured": 64.1}
{"compound": "CN1CCN(c2c(F)cc3c(=O)c(C(=O)[O-])cn(CCF)c3c2F)CC1.CN1CCN(c2c(F)cc3c(=O)c(C(=O)[O-])cn(CCF)c3c2F)CC1.CO.CO.[Ni+2] [complex 5, [Ni(flrx)2(MeOH)2]]", "value_measured": 56.9}
{"compound": "CN1CCN(c2c(F)cc3c(=O)c(C(=O)[O-])cn(CCF)c3c2F)CC1.CN1CCN(c2c(F)cc3c(=O)c(C(=O)[O-])cn(CCF)c3c2F)CC1.[Cu+2] [complex 1, [Cu(flrx)2]]", "value_measured": 62.2}

Source of measurements: paper PMC9144902
